Please provide measured total protein half-life in vivo for the entries that follow.
assay: total protein half-life in vivo (active degradation + dilution); higher = more stable protein; conditions: wild type E. coli NCM3722; growth: C-lim chemostat; doubling time 6 h
Give just the number in h; leave the unit off.

# sequence `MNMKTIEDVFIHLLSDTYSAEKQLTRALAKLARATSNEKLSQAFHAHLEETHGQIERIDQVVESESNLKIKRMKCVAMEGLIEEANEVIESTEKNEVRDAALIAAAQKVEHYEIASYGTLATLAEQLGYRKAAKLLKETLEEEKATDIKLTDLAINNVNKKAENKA` ; its total protein half-life in vivo = 5.04

# sequence `MGQLIDGVWHDTWYDTKSTGGKFQRSASAFRNWLTADGAPGPTGTGGFIAEKDRYHLYVSLACPWAHRTLIMRKLKGLEPFISVSVVNPLMLENGWTFDDSFPGATGDTLYQNEFLYQLYLHADPHYSGRVTVPVLWDKKNHTIVSNESAEIIRMFNTAFDALGAKAGDYYPPALQTKIDELNGWIYDTVNNGVYKAGFATSQEAYDEAVAKVFESLARLEQILGQHRYLTGNQLTEADIRLWTTLVRFDPVYVTHFKCDKHRISDYLNLYGFLRDIYQMPGIAETVNFDHIRNHYFRSHKTINPTGIISIGPWQDLDEPHGRDVRFG` ; its total protein half-life in vivo = 5.64

Data origin, for the record: the supplement of paper PMC11246515
